Data provenance: patent US20100260765A1

# Target of assay: KDR endogenously expressed on human umbilical vein endothelial cells (HUVEC) (human, UniProt P35968 20-1356); also: test concentration or dose not given here
# Sequence (P35968 20-1356): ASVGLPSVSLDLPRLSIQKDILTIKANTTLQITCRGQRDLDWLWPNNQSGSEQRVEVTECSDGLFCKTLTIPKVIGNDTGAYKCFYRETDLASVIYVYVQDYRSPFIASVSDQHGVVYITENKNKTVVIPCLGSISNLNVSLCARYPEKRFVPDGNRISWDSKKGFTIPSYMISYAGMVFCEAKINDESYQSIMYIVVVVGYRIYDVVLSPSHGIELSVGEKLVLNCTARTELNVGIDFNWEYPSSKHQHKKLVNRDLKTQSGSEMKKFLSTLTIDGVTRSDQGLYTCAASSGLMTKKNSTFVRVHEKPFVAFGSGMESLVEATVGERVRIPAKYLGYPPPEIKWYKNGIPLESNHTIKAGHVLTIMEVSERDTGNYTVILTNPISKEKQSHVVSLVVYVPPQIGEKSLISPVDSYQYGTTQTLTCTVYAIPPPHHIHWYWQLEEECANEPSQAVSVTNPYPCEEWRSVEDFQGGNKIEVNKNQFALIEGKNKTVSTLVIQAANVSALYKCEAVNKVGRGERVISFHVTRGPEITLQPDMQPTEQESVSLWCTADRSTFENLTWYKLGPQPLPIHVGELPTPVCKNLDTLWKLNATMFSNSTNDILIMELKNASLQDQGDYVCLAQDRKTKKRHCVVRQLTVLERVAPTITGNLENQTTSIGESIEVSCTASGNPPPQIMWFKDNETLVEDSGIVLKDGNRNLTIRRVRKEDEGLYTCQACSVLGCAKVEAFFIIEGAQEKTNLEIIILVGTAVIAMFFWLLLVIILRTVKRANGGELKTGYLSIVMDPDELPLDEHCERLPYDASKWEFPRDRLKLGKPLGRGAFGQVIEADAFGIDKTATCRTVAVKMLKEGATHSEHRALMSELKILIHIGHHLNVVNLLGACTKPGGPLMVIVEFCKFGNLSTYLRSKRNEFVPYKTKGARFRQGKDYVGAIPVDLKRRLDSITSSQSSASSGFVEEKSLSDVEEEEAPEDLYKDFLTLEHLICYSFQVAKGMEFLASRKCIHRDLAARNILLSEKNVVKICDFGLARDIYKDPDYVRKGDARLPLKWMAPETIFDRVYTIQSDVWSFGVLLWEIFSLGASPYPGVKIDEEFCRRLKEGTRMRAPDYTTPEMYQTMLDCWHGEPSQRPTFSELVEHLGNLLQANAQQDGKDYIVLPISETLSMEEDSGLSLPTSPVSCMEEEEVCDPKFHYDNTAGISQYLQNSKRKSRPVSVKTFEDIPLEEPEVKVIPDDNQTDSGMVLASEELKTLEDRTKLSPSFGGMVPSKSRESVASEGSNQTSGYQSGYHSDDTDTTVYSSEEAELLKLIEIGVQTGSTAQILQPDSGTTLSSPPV
# Protocol description: cell-based or functional assay
The entries below come with measured VEGF-E-mediated Survival % Inhibition (Average) values attached.
State the value, then name its unit.

{"Binder": "32F4 (antibody, V domains shown, Fully human mAb from XenoMouse hybridoma, tested as hybridoma supernatant) VH: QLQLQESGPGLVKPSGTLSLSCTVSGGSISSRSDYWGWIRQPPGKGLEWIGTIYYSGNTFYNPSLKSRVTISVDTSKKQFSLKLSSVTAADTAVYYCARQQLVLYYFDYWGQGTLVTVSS VL: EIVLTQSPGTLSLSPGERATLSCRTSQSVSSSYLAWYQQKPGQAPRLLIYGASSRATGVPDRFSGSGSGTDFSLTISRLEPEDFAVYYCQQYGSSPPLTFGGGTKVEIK", "Val": "64%"}

Okay, now this binder:
Problem: Give me measured VEGF-E-mediated Survival % Inhibition (Average), please, for this binder: 27A3 (antibody, V domains shown, Fully human mAb from XenoMouse hybridoma, tested as hybridoma supernatant) VH: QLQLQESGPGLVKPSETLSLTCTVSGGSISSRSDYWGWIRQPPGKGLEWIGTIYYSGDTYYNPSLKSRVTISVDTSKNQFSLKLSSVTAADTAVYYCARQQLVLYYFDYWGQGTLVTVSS VL: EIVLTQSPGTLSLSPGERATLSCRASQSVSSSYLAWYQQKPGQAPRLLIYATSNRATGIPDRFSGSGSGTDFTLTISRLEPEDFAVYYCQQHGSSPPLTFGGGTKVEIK
Solution: 58%
